Hello, the source for this data is the supplement of paper PMC10126150, in case you need it.

System: ATP;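 also: ATP exposure 15 min at 22 °C before imaging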
Test: switch fluorescence ratio, 500 uM ATP over buffer (Cy3 cluster intensity, sum of 5 cycles each) (fold (ratio)); higher = stronger signal-on switching upon ATP binding; sequences stand for … in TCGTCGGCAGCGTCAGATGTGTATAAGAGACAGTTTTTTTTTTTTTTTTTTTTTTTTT…TC
Conditions: aptamer strand: ATP DNA aptamer (quencher-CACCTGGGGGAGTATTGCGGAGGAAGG + anchor), 100 nM annealed; ATP concentration: 500 uM
PROPERTY_LABEL: switch fluorescence ratio

Query :: Return the recorded switch fluorescence ratio value; entry: TGGAAAAATG
Result :: 0.991

Query :: Kindly indicate its recorded switch fluorescence ratio. Item: AAAGAGCGTA
Result :: 1

Query :: Read off the recorded switch fluorescence ratio for ATGTTATTTA
Result :: 1.01

Query :: Query switch fluorescence ratio for CAACCGCCTT
Result :: 1.46

Query :: Item TGGGTAGGAA : provide switch fluorescence ratio
Result :: 1.03

Query :: Supply measured switch fluorescence ratio of GAATAAAATG in your reply.
Result :: 1.04

Query :: Please report the measured switch fluorescence ratio for ACATGCATTA
Result :: 1.02

Query :: Specify switch fluorescence ratio for ATAATTGGG and stop.
Result :: 0.978

Query :: Provide one value: measured switch fluorescence ratio of GCGGTAGCAT
Result :: 1.02

Query :: # return recorded switch fluorescence ratio for entry GGATGTCACT
Result :: 0.974

Query :: Check the records and state switch fluorescence ratio for ATTTGTGGTT
Result :: 0.975

Query :: Supply switch fluorescence ratio value. Item: ACGATGGGAG
Result :: 1.02

Query :: For the sequence GGGCATAGG , give its measured switch fluorescence ratio value.
Result :: 1.01

Query :: For the sequence CACCGGCTTT , give its reported switch fluorescence ratio.
Result :: 1.1

Query :: Check the records and state switch fluorescence ratio for TTAAAATCAG
Result :: 1.01

Query :: Fill in reported switch fluorescence ratio for this entry: GCTGGGACAC
Result :: 1.04

Query :: Give the reported value of switch fluorescence ratio for this record: TCGGTGTTTC
Result :: 0.962

Query :: Output measured switch fluorescence ratio for this item: TTTTGTGTGC
Result :: 1.02

Query :: Complete the entry with switch fluorescence ratio for CTCGGCGTCG
Result :: 1.03

Query :: Return the recorded switch fluorescence ratio value; entry: GAATCCAGTT
Result :: 0.989

Query :: Give switch fluorescence ratio for the following sequence: GAGGGTATGG
Result :: 1.01

Query :: For the sequence CCATGTGTGT , give its reported switch fluorescence ratio.
Result :: 1.01

Query :: Supply reported switch fluorescence ratio belonging to this sequence: GTTTAGAGCG
Result :: 1.03

Query :: Please report switch fluorescence ratio for the following sequence: CGGGAAGCAC
Result :: 1.53

Query :: State its switch fluorescence ratio for this sequence: AGGGCGCTAT
Result :: 1.05

Query :: Consider the sequence TTGAATATTT and give its recorded switch fluorescence ratio.
Result :: 1

Query :: Complete the entry with switch fluorescence ratio for ATCGGCGATT
Result :: 1.04

Query :: Hello, please tell me recorded switch fluorescence ratio for this one: GCGGAGCATG
Result :: 1.1

Query :: Please report the measured switch fluorescence ratio for AGGGTCCTAC
Result :: 1.02

Query :: Please report the measured switch fluorescence ratio for CTACAAAGGG
Result :: 1.01

Query :: Identify measured switch fluorescence ratio corresponding to TGTTTGTTT
Result :: 1.03

Query :: Hello, please tell me recorded switch fluorescence ratio for this one: GTCTTTTTTT
Result :: 0.96

Query :: Provide one value: measured switch fluorescence ratio of GCTGATCGTA
Result :: 0.991

Query :: Give me measured switch fluorescence ratio, please, for this sequence: GCCGTTATGG
Result :: 1.02

Query :: Give switch fluorescence ratio for the following sequence: CCGCTGGATG
Result :: 1.2

Query :: # return recorded switch fluorescence ratio for input TTGGGTACGG
Result :: 1.03

Query :: Give the measured switch fluorescence ratio for GCCTAGCATA
Result :: 1.02

Query :: Retrieve switch fluorescence ratio measured for ACTGTTAATG and print it.
Result :: 1.01

Query :: Quote switch fluorescence ratio reported for AATAATCAGT please.
Result :: 1.05

Query :: Please give the documented switch fluorescence ratio of TAAGGTTTAT
Result :: 0.998

Query :: Give a short answer stating reported switch fluorescence ratio for AGGTGAAAAG .
Result :: 1.01

Query :: For the sequence CGTGAGCTAG , report switch fluorescence ratio.
Result :: 1.03

Query :: Hello, please tell me recorded switch fluorescence ratio for this one: GGGGTGGTTT
Result :: 0.951

Query :: Give the value of switch fluorescence ratio reported for the following: TGCTTGGTTT
Result :: 1.02

Query :: Item TGAAAAAAAG : provide switch fluorescence ratio
Result :: 0.973

Query :: Provide measured switch fluorescence ratio value, entry: GATTACGGCC
Result :: 1.06

Query :: Quickly give me recorded switch fluorescence ratio for CCTGGGCGGT
Result :: 1.32

Query :: Please list switch fluorescence ratio recorded for the sequence GCAAAAATCT
Result :: 1.01

Query :: Specify measured switch fluorescence ratio for ATGAAAGACC .
Result :: 1.04

Query :: Give the measured switch fluorescence ratio for TTAGGTGTTT
Result :: 1.54

Query :: Complete the entry with switch fluorescence ratio for TAGATCGGGG
Result :: 1.01

Query :: Output switch fluorescence ratio of ATCTGAACGT
Result :: 1.02

Query :: Complete the entry with switch fluorescence ratio for TTAAAAAATT
Result :: 1.02

Query :: Tell me its switch fluorescence ratio given GGATGACTTT as the entry.
Result :: 0.998

Query :: Look up switch fluorescence ratio of AAGAGCGGTG and report it.
Result :: 0.952

Query :: Check the records and state switch fluorescence ratio for TGCTTATGGG
Result :: 0.965

Query :: Provide measured switch fluorescence ratio value, entry: GGTCGTTTGC
Result :: 1.05

Query :: Read off the recorded switch fluorescence ratio for TTTACCTCGA
Result :: 1.03

Query :: Annotate the sequence TTGCTATCTT with its measured switch fluorescence ratio.
Result :: 0.983

Query :: Query switch fluorescence ratio for TATCGTGAGT
Result :: 0.982

Query :: Given TTCTGGTTAC , respond with its switch fluorescence ratio.
Result :: 1.06

Query :: // fetch switch fluorescence ratio given entry TTGGTGGTT
Result :: 0.981

Query :: Identify measured switch fluorescence ratio associated with CGAAGCGTCA
Result :: 1.08

Query :: Recall and state the measured switch fluorescence ratio for GGCTGGGCTT .
Result :: 0.99

Query :: Look up switch fluorescence ratio of AGTAAGATTG and report it.
Result :: 0.989

Query :: Write down switch fluorescence ratio measured for item GGCGTATGTG
Result :: 0.96

Query :: Note switch fluorescence ratio for the sequence shown: TCACTAGATC
Result :: 0.998

Query :: Name the recorded switch fluorescence ratio of the item TTGGCGGTGG in your answer.
Result :: 1.08

Query :: Recall and state the measured switch fluorescence ratio for CCTTATCCG .
Result :: 1.07

Query :: Tell us which switch fluorescence ratio value is on record for TTTGGGGAGT
Result :: 1

Query :: Provide one value: measured switch fluorescence ratio of GGGGCGTGTA
Result :: 0.977

Query :: Name the recorded switch fluorescence ratio of the item GAGAGGCTGC in your answer.
Result :: 0.975

Query :: Read the entry GCGTCTATTA and write its reported switch fluorescence ratio.
Result :: 0.995

Query :: State its switch fluorescence ratio for this sequence: GTTAGCTAAT
Result :: 0.987

Query :: Please give measured switch fluorescence ratio of the following entry: TAAAAGCTGA
Result :: 0.989

Query :: For the sequence ATTATGTGGC , give its reported switch fluorescence ratio.
Result :: 0.98

Query :: Give reported switch fluorescence ratio value for CATCATCTTG
Result :: 1

Query :: Please indicate switch fluorescence ratio recorded for TTGCGGCGGT
Result :: 0.983

====

System: ATP;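 also: ATP exposure 15 min at 22 °C before imaging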
Assay: switch fluorescence ratio, 500 uM ATP over buffer (Cy3 cluster intensity, sum of 5 cycles each) (fold (ratio)); higher = stronger signal-on switching upon ATP binding; sequences stand for … in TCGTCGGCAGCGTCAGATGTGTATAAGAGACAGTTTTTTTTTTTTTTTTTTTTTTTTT…TC
Details: aptamer strand: ATP DNA aptamer (quencher-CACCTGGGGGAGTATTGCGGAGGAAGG + anchor), 100 nM annealed; ATP concentration: 500 uM
PROPERTY_LABEL: switch fluorescence ratio

Query :: Fill in switch fluorescence ratio for record TTTTTAGCTT
Result :: 1.04

Query :: // fetch switch fluorescence ratio given entry TCATCTTGGC
Result :: 1.02

Query :: State, in one line, measured switch fluorescence ratio of TAAACAGTGA
Result :: 1.01

Query :: Look up and state reported switch fluorescence ratio for CCATCGTACC
Result :: 1.3

Query :: Find the measured switch fluorescence ratio of CGAATTTTCG and report it.
Result :: 0.976

Query :: Give a short answer stating reported switch fluorescence ratio for CTGTTAGGTA .
Result :: 1.01

Query :: Answer with reported switch fluorescence ratio of GTAGCTTTGG
Result :: 1.04

Query :: State its switch fluorescence ratio: TTTGGGTTAA
Result :: 1.13

Query :: Return reported switch fluorescence ratio. Input sequence: CATACAATAT
Result :: 1.11

Query :: Look up and report measured switch fluorescence ratio for this entry: GACTATTTGG
Result :: 1.02

Query :: Query switch fluorescence ratio for AAGGCTGTGT
Result :: 1

Query :: Provide one value: measured switch fluorescence ratio of CATAGGTTGC
Result :: 0.983

Query :: Specify measured switch fluorescence ratio for TAGCAGTCGA .
Result :: 1.09

Query :: # return recorded switch fluorescence ratio for entry TGGGGGGTCG
Result :: 1.03

Query :: # return recorded switch fluorescence ratio for entry TAAGTGCCAC
Result :: 1.01

Query :: Please indicate switch fluorescence ratio recorded for TTAAAGGGTA
Result :: 0.992

Query :: Give switch fluorescence ratio for GCACGGGGCT
Result :: 1.04

Query :: Answer with reported switch fluorescence ratio of CATCCGAGGT
Result :: 1.14

Query :: Annotate the sequence TTTGCTTTCT with its measured switch fluorescence ratio.
Result :: 1.02

Query :: Determine from records and report switch fluorescence ratio for GCTATATACA
Result :: 1.04

Query :: Look up switch fluorescence ratio of GGGCCCAGCT and report it.
Result :: 1.02

Query :: Check the records and state switch fluorescence ratio for GTATTCAGTA
Result :: 0.995

Query :: Hello, please tell me recorded switch fluorescence ratio for this one: TCGGAGATCG
Result :: 0.944

Query :: Retrieve switch fluorescence ratio measured for TTGGGGCACG and print it.
Result :: 0.99

Query :: // Input: CGTTTGTTTT . Output its switch fluorescence ratio only.
Result :: 1

Query :: Give the value of switch fluorescence ratio reported for the following: GATTGTACTC
Result :: 1.02

Query :: Give me measured switch fluorescence ratio, please, for this sequence: AAGGGAGGCG
Result :: 1.14

Query :: Give recorded switch fluorescence ratio. ATGTTAGATT
Result :: 0.996

Query :: Entry TTCCTGAAAA needs its switch fluorescence ratio filled in; supply it.
Result :: 0.981

Query :: Complete the entry with switch fluorescence ratio for GACCAGCCCC
Result :: 1.31

Query :: Using the record for TACTTTGCTT , state its measured switch fluorescence ratio.
Result :: 1.06

Query :: # return recorded switch fluorescence ratio for entry ATTTGGGTGT
Result :: 1.05

Query :: Provide switch fluorescence ratio value for the following sequence: TGTCAGTTTC
Result :: 0.987

Query :: Give switch fluorescence ratio for ACACCGGGGG
Result :: 1.13

Query :: Report measured switch fluorescence ratio; entry is TTCCACGACT
Result :: 1.02

Query :: Given TGTTGAGTTG , respond with its switch fluorescence ratio.
Result :: 0.975
